compounds and their reported pIC50
Tested on: MYB mRNA
Assay: RT-qPCR splicing assay, MYB mRNA canonical (CJ) and alternative (AJ) junction
Format: cell-based, human
Conditions: Homo sapiens, MYB canonical junction mRNA, RT-qPCR; read-out: MYB CJ (decrease in CJ mRNA levels, IC50)
pIC50: −log10 of the molar value.

Below: 5 compounds and their reported pIC50.
> print(dat)
                                   compound  observed.value
1  Cn1cc2cc(-c3ccc4nc(N5CC[C@H](NC6(CF)CC6)C5)ccc4n3)c(O)cc2n1 [Compound 355]          > 7.00
2  CN1CCN(c2ccc3nc(-c4cc5cn(C)nc5cc4O)ccc3n2)CC1 [Compound 116]    6.00 to 7.00
3  Cc1c(O)c(-c2ncc3nc([C@@H]4CCNC4)ccc3n2)cc2cn(C)nc12 (single isomer, unassigned) [Compound 398]    5.00 to 6.00
4  Cn1cc2cc(-c3ccc4nc([C@H]5CCNC6(CC6)C5)ccc4n3)c(O)cc2n1 (single isomer, unassigned) [Compound 496]    6.00 to 7.00
5  Cc1nc2c(F)c(O)c(-c3ccc4nc(N5CCC(NC(C)C)C5)ccc4n3)cc2o1 (stereo not shown) [Compound 328]          > 7.00

I looked up Cc1cn2nc(-c3ccc4nc(N5CCC(NC(C)(C)C)C5)ccc4n3)cc2c(C)n1 (stereo not shown) [Compound 187] and its pIC50 for MYB mRNA was 6.00 to 7.00

I looked up C[C@@H]1CN(c2ccc3nc(-c4cc5cn(C)nc5c(F)c4O)ncc3c2)C[C@H](C)N1 [Compound 743] and its pIC50 for MYB mRNA was 5.00 to 6.00

---

System: K562 cells
Assay: Cell Titer Glo 2.0 cell viability (toxicity) assay, K562
Settings: 500 cells/well, 72 hours
measured attribute: Effect of Exemplary Compounds on Cell Viability, K562

> print(dat)
                                   molecule  study.system            observed.value
1  Cc1nc2c(C)c(O)c(-c3ccc4nc(N5CCC(NC(C)C)C5)ccc4n3)cc2o1 (centres unmarked) [Compound 312]    K562 cells  A (A represents <100 nM)
2  Cc1c(O)c(-c2ccc3nc(N4CC[C@@H](NC(C)C)C4)ccc3n2)cc2cn(C)nc12 (single isomer, unassigned) [Compound 319]    K562 cells  A (A represents <100 nM)

---

Test system: MYB mRNA
Experiment: RT-qPCR splicing assay, MYB mRNA canonical (CJ) and alternative (AJ) junction
Format: cell-based, human
Conditions: Homo sapiens, MYB canonical junction mRNA, RT-qPCR; read-out: MYB CJ (decrease in CJ mRNA levels, IC50)
pIC50: −log10 of the molar value.
measured attribute: pIC50

Below: 5 compounds and their reported pIC50.
> print(dat)
                                   compound  observed.value
1  Cc1nc2cc(O)c(-c3ccc4nc(N5CC[C@H](NC6CCC6)C5)ccc4n3)cc2o1 [Compound 230]    6.00 to 7.00
2  Cn1cc2cc(-c3ccc4nc(N5CCC(NC6CC6)C5)ccc4n3)c(O)cc2n1 (centres unmarked) [Compound 158]          > 7.00
3  Cc1cn2nc(-c3ccc4nc(N5CCC(NC(C)(C)C)C5)ccc4n3)cc(C)c2n1 (centres unmarked) [Compound 186]    6.00 to 7.00
4  Cc1nc2cc(O)c(-c3ccc4nc(N5CC[C@H](NC(C)(C)C)C5)ncc4n3)cc2o1 [Compound 414]    5.00 to 6.00
5  Cc1nc2cc(O)c(-c3ccc4nc(N5CC[C@H](NC6CC6)C5)ccc4n3)cc2o1 [Compound 211]          > 7.00

Query Cn1cc2cc(-c3ccc4nc(N5CCC(N)C5)ccc4n3)c(O)c(F)c2n1 (centres unmarked) [Compound 238] yields pIC50 of > 7.00

Query Cc1cc(=O)c2cc(O)c(-c3ccc4nc(N5CCC(NC(C)(C)C)C5)ccc4n3)cc2o1 (centres unmarked) [Compound 174] yields pIC50 of < 5.00

Query Cn1cc2cc(-c3ccc4nc(N5CCC(NC6CC6)C5)ccc4n3)c(O)c(F)c2n1 (racemic) [Compound 287, trifluoroacetic acid] yields pIC50 of > 7.00

Query CN(C)C1CCN(c2ccc3nc(-c4cc5cn(C)nc5cc4O)ccc3n2)CC1 [Compound 133] yields pIC50 of 5.00 to 6.00

Query Cn1cc2cc(-c3ccc4nc(N5CC6(CNC6)C5)ccc4n3)c(O)cc2n1 [Compound 124] yields pIC50 of 6.00 to 7.00

Query Cc1nc2c(F)c(O)c(-c3ccc4nc(N5CC[C@@H](NC6CC6)C5)ccc4n3)cc2o1 [Compound 253] yields pIC50 of > 7.00

Query Cc1nc2cc(O)c(-c3ccc4nc(N5CCC(NC6CCC6)C5)ccc4n3)cc2o1 (centres unmarked) [Compound 228] yields pIC50 of 6.00 to 7.00

Query Cc1c(O)c(-c2ncc3cc(N4CCNCC4)ccc3n2)cc2cn(C)nc12 [Compound 520] yields pIC50 of 6.00 to 7.00

Query Cc1cn2nc(-c3ccc4nc(C5CCNCC5)ccc4n3)c(O)c2c(C)n1 [Compound 150] yields pIC50 of > 7.00

Query Cn1cc2cc(-c3ccc4nc(N5CC[C@@H](NC6CC6)C5)ccc4n3)c(O)cc2n1 [Compound 198] yields pIC50 of > 7.00

Query Cc1nc2c(C)c(O)c(-c3ccc4cc(N5CC[C@@H](NC6CC6)C5)ncc4n3)cc2o1 [Compound 440] yields pIC50 of 6.00 to 7.00

Query Cn1cc2cc(-c3ccc4nc(N5CC[C@@H](NC6(C)CC6)C5)ccc4n3)c(O)c(F)c2n1 [Compound 223] yields pIC50 of > 7.00

---

Tested on: HTT mRNA
Experiment: RT-qPCR splicing assay, HTT mRNA canonical (CJ) and alternative (AJ) junction
Type: cell-based, human
Settings: Homo sapiens, HTT canonical junction mRNA, RT-qPCR; read-out: HTT CJ (decrease in CJ mRNA levels, IC50)
Procedure: Compounds described herein were used to modulate RNA transcript abundance in cells. The expression of a target mRNA was measured by detecting the formation of an exon-exon junction in the canonical transcript (CJ). A compound mediated exon-inclusion event was detected by observing an increase in formation of a new junction with an alternative exon (AJ). Real-time qPCR assays were used to detect these splicing switches and interrogate the potency of various compounds towards different target genes. […]
measured attribute: IC50

Query "Cc1nc2c(C)c(O)c(-c3ccc4cc(N5CC[C@H](NC6CC6)C5)ncc4n3)cc2o1" yields IC50 of < 100 nM

Query "Cn1cc2cc(-c3ccc4cc(N5CCNCC5)cc(F)c4n3)cc(F)c2n1" yields IC50 of 100 to 1000 nM

Query Cc1cn2cc(-c3ccc4cc(N5C[C@H](C)N[C@@H](C)C5)cc(F)c4n3)cc(F)c2n1 (single isomer, unassigned) [Compound 705, 2,2,2-trifluoroacetate] yields IC50 of 100 to 1000 nM

Query Cc1nc2c(C)c(O)c(-c3ccc4nc(N5CC[C@H](NC(C)C)C5)ccc4n3)cc2o1 (single isomer, unassigned) yields IC50 of < 100 nM

---

compounds and their reported AC50
Test system: MYB mRNA
Assay: RT-qPCR splicing assay, MYB mRNA canonical (CJ) and alternative (AJ) junction
Type: cell-based, human
Conditions: Homo sapiens, RT-qPCR, MYB alternative junction mRNA increase; read-out: MYB AJ (increase in alternative junction mRNA, AC50)

Below: 5 compounds and their reported AC50.
> print(dat)
                                   compound  measured.attribute  observed.value
1  C[C@H]1CN(c2cc(F)c3nc(-c4cc(F)c5nn(C)cc5c4)ccc3c2)CCN1 (single isomer, unassigned) [Compound 789]                AC50        < 100 nM
2  C[C@@H]1CN(c2ccc3nc(-c4cc5cn(C)nc5cc4O)ncc3c2)CC2(CC2)N1 (single isomer, unassigned) [Compound 813]                AC50  100 to 1000 nM
3  Cc1cn2cc(-c3ncc4cc(N5C[C@H](C)N[C@@H](C)C5)ccc4n3)cc(Cl)c2n1 (single isomer, unassigned) [Compound 818]                AC50        < 100 nM
4  C[C@@H]1CN(c2ccc3nc(-c4cc5cn(C)nc5cc4O)nc(C(N)=O)c3c2)C[C@H](C)N1 [Compound 785, 2,2,2-trifluoroacetate]                AC50  100 to 1000 nM
5  C[C@@H]1CN(c2ccc3nc(-c4cc(F)c5nc(CO)cn5c4)ncc3c2)C[C@H](C)N1 [Compound 834]                AC50  100 to 1000 nM

Query Cc1c(O)c(-c2ncc3cc(N4CCC(N5CCC5)CC4)ccc3n2)cc2cn(C)nc12 [Compound 786] yields AC50 of 100 to 1000 nM

Query C[C@@H]1CN(c2ccc3nc(-c4cc(F)c5nc(CF)cn5c4)ncc3c2)C[C@H](C)N1 [Compound 835] yields AC50 of 100 to 1000 nM

Query Cc1cn2nc(-c3ncc4cc(N5CCNC6(CC6)C5)ccc4n3)cc(C)c2n1 [Compound 795] yields AC50 of 1000 to 10000 nM

Query Cn1cc2cc(-c3ncc4cc(N5CCC(N6CCC6)CC5)ccc4n3)c(O)cc2n1 [Compound 801] yields AC50 of 1000 to 10000 nM

Query Cc1cn2cc(-c3ncc4cc(N5C[C@H](C)N[C@@H](C)C5)ccc4n3)cc(F)c2n1 [Compound 803] yields AC50 of < 100 nM

Query Cc1cn2nc(-c3ncc4cc(N5C[C@H](C)N[C@@H](C)C5)ccc4n3)cc(C)c2n1 (single isomer, unassigned) [Compound 798] yields AC50 of 100 to 1000 nM

Query Cc1cn2cc(-c3ncc4cc(N5C[C@H](C)NC6(CC6)C5)ccc4n3)cc(F)c2n1 (single isomer, unassigned) [Compound 814] yields AC50 of 100 to 1000 nM

Query Cc1cn2cc(-c3ncc4cc(N5C[C@@H](C)N[C@@H](C)C5)ccc4n3)cc(C#N)c2n1 [Compound 831] yields AC50 of < 100 nM

Query Cc1c(O)c(-c2ncc3cc(N4C[C@H](C)NC5(CC5)C4)ccc3n2)cc2cn(C)nc12 (single isomer, unassigned) [Compound 810] yields AC50 of 100 to 1000 nM
